studySystem: T1, cynomolgus monkey CD38 expressed on the cell surface (cynomolgus monkey, UniProt Q5VAN0 1-301)
T1 construct: whole, on cells; also called cCD38-expressing cells
experiment: flow cytometry on preB::300.19 cells, apparent KD
measuredMetric: pKd
Answer as the number alone; pKd is minus log10 of concentration in mol/L.

So what does the record say about pKd for mAb5 (antibody, human IgG1, kappa, V domains shown, also called antiCD38_C2-CD38-1_VH6-VL3) VH: QVQLVQSGAEVVKPGASVKMSCKASGYTFTSFNMHWVKEAPGQRLEWIGYIYPGNGGTNYNQKFQGRATLTADTSASTAYMEISSLRSEDTAVYFCARTGGLRRAYFTYWGQGTLVTVSS VL: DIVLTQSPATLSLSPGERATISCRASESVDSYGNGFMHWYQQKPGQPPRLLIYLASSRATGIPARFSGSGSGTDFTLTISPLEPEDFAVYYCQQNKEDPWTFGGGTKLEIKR ? 8.97

Numbers sourced from patent US20220041746A1.
